measurement target: human activated kallikrein enzyme (plasma kallikrein) (Homo sapiens (Human), UniProt P03952)
Sequence (P03952 391-638): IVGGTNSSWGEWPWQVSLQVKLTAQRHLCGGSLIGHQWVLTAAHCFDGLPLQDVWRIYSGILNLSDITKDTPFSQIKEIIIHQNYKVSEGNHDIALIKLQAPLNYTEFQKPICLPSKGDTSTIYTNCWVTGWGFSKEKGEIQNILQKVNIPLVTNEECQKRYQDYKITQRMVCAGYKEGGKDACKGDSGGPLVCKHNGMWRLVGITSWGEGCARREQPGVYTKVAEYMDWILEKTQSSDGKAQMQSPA
Sequence (P03952 20-390 partner): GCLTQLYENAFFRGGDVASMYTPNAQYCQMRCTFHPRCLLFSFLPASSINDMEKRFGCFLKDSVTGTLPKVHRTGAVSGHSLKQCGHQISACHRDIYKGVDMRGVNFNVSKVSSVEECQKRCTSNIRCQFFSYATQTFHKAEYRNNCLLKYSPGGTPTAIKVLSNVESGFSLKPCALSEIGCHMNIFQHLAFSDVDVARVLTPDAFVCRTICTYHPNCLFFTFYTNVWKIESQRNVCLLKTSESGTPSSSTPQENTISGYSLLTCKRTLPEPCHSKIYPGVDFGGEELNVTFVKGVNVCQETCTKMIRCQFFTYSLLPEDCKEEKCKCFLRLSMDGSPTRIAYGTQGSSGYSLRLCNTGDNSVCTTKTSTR
assay info: Inhibition of human activated plasma kallikrein, fluorogenic peptide substrate assay, 500 pM enzyme format
Format: biochemical
assay conditions: 500 pM activated kallikrein enzyme, 300 uM Pro-Phe-Arg-7-amido-4-methylcoumarin substrate, 30 min preincubation, 10 min at RT; read-out: Primary Dose Response Assay: Average EC50
pEC50: −log10 of the molar value.
Measured pEC50 values are reported for all entries that follow.

>>> observed_value("O=C(NCc1ncn2ccc(Cl)c(F)c12)c1cnn(Cc2cn3ncccc3n2)c1")
"7.00 to 8.00"

pEC50 reading for O=C(O)CCc1cc(C2CC2)cn2cc(Cn3cc(C(=O)NCc4ncn5ccc(Cl)cc45)cn3)nc12 [Example I-100c] : > 9.00

`O=C(NCc1ncn2ccc(Cl)c(F)c12)c1cn(Cc2nc3cc(C4CC4)ccc3[nH]2)nn1` yielded pEC50 of 7.00 to 8.00

pEC50 for `O=C(NCc1ncn2ccc(Cl)cc12)c1cn(Cc2cn3cc(C4CC4)ccc3n2)nc1Cc1nn[nH]n1` is > 9.00

====

measurement target: human activated kallikrein enzyme (plasma kallikrein) (Homo sapiens (Human))
assay info: Inhibition of human activated plasma kallikrein, fluorogenic peptide substrate assay, 500 pM enzyme format
Assay type: biochemical
assay conditions: comparative compounds (Table II); assay format with 500 pM (500 μM in the source) activated kallikrein; read-out: Primary Dose Response Assay: Average EC50
Below, each entry is listed with its recorded EC50.

In the examples that follow, each entry is paired with its recorded EC50.
>>> observed_value("COCc1nn(Cc2ccc(Cn3ccccc3=O)cc2)cc1C(=O)NCc1c(F)ccc(OC)c1F [reference compound]")
"10 to 100 nM"
>>> observed_value("COCc1nn(Cc2ccc(N3CCCC3)nc2)cc1C(=O)NCc1c(-n2cnnn2)ccc(OC)c1F [reference compound]")
"1 to 10 nM"
>>> observed_value("O=C(NCc1nsc2ccc(Cl)cc12)c1cnn(Cc2cn3cc(C4CC4)ccc3n2)c1 [reference compound]")
"10 to 100 nM"

In plain terms, COCc1nn(Cc2ccc(Cn3ccccc3=O)cc2)cc1C(=O)NCc1c(C#N)ccc(OC)c1F [reference compound] has a documented EC50 of 1 to 10 nM

Recorded result, O=C(NCc1nnc2ccc(Cl)cn12)c1cnn(Cc2cn3cc(C4CC4)ccc3n2)c1 [reference compound] , EC50: 100 to 2000 nM

Per the records, this molecule ( O=C(NCc1ncn2ccc(Cl)cc12)c1ccnc(Cc2ccc3ncc(Cl)cc3c2)c1 [drawing 399, reference compound] ) has EC50 equal to 10 to 100 nM

# EC50 of Cc1ccc2nc(Cn3cc(C(=O)NCc4cnc5ccc(Cl)cn45)cn3)cn2c1 [reference compound] = 100 to 2000 nM

Reported EC50 of O=C(NCc1ncn2ccc(C3CC3)cc12)c1cnn(Cc2cn3cc(C4CC4)ccc3n2)c1 [drawing 403, reference compound] : 100 to 2000 nM

====

Property: EC50; scope: individual molecules
measurement target: human activated kallikrein enzyme (plasma kallikrein) (Homo sapiens (Human))
assay info: Inhibition of human activated plasma kallikrein, fluorogenic peptide substrate assay, 500 pM enzyme format
Format: biochemical
assay conditions: 500 pM activated kallikrein enzyme, 300 uM Pro-Phe-Arg-7-amido-4-methylcoumarin substrate, 30 min preincubation, 10 min at RT; read-out: Primary Dose Response Assay: Average EC50

>>> observed_value("N#Cc1cc(C2CC2)cn2cc(Cc3nnc(C(=O)NCc4ncn5ccc(Cl)cc45)o3)nc12")
"< 1 nM"
>>> observed_value("CC(NC(=O)c1cn(Cc2cn3cc(C4CC4)cc(C(O)C4COC4)c3n2)nn1)c1ncn2ccc(Cl)c(F)c12 (stereo not drawn)")
"10 to 100 nM"
>>> observed_value("O=C(NCc1ncn2ccc(Cl)c(F)c12)c1cn(Cc2cn3cc(C4CC4)cc(-n4cnnc4)c3n2)nn1")
"< 1 nM"

get_value(item= `O=C(NCc1ncn2ccc(Cl)c(F)c12)c1cn(Cc2cn3cc(C4CC4)cc(-c4nn[nH]n4)c3n2)nn1` , readout=EC50) returns < 1 nM

The molecule `Cc1ccc2nc(Cn3cc(C(=O)NCc4ncn5ccc(Cl)cc45)cn3)cn2c1` showed EC50 equal to 1 to 10 nM

Recorded EC50 (molecule `[2H]C([2H])(NC(=O)c1cnn(Cc2cn3cc(C4CC4)ccc3n2)c1)c1ncn2ccc(Cl)cc12` ): < 1 nM

Form: molecule = `O=C(NCc1ncn2ccc(Cl)c(F)c12)c1cn(Cc2cc3cc(C4CC4)ccc3o2)nn1` ; EC50 = 1 to 10 nM

EC50 measured on `Cc1ccn2cnc(CNC(=O)c3cnn(Cc4cn5cc(C6CC6)ccc5n4)c3)c2c1` = 1 to 10 nM

The value of EC50 measured for the molecule CC1(C)CC1c1ccn2cc(Cn3cc(C(=O)NCc4ncn5ccc(Br)cc45)cn3)nc2c1 (stereo not drawn) turned out to be 10 to 100 nM

Field EC50 (entry CC(c1cn2cc(C3CC3)ccc2n1)n1cc(C(=O)NCc2ncn3ccc(Cl)cc23)nn1 (stereo not drawn) ) reads 1 to 10 nM

Noted for `O=C(NCc1ncn2ccc(Br)c(F)c12)c1cn(Cc2cn3c(F)c(C4CC4)ccc3n2)nn1` : its EC50 reads < 1 nM

Reported EC50 for COC(=O)C1(Cc2cc(C3CC3)cn3cc(Cn4cc(C(=O)NCc5ncn6ccc(Cl)c(F)c56)nn4)nc23)CCCC1 [Example I-221a] was < 1 nM

// EC50 value for `O=C(NCc1ncn2ccc(Cl)cc12)c1cnn(Cc2cn3c(F)c(C4CC4)ccc3n2)c1` : < 1 nM

Please fill in: EC50 reported for `O=C(NCc1ncn2ccc(Cl)cc12)c1cnn(Cc2cn3c(C4CC4)cccc3n2)c1` = 100 to 2000 nM

The molecule `O=C(NCc1ncn2ccc(Cl)c(F)c12)c1cn(Cc2cn3cc(C4CC4)cc(-c4cnoc4)c3n2)nn1` showed EC50 equal to < 1 nM

====

measurement target: human activated kallikrein enzyme (plasma kallikrein) (Homo sapiens (Human))
assay info: Inhibition of human activated plasma kallikrein, fluorogenic peptide substrate assay, 500 pM enzyme format
Assay type: biochemical
endpoint label: EC50

EC50 measured on `O=C(NCc1ncn2ccc(Cl)cc12)c1cn(Cc2cn3cc(C4CC4)ccc3n2)c2cccnc12` = 10 to 100 nM

# EC50 (compound: `O=C(NCc1ncn2ccc(Br)cc12)c1cn(Cc2cn3cc(C4CC4)ccc3n2)c2cccnc12` ) is 1 to 10 nM

====

Below, each of the compounds is paired with its reported pEC50 value.
measurement target: human activated kallikrein enzyme (plasma kallikrein) (Homo sapiens (Human), UniProt P03952)
assay info: Inhibition of human activated plasma kallikrein, fluorogenic peptide substrate assay, 500 pM enzyme format
Assay type: biochemical
assay conditions: 500 pM activated kallikrein enzyme, 300 uM Pro-Phe-Arg-7-amido-4-methylcoumarin substrate, 30 min preincubation, 10 min at RT; read-out: Primary Dose Response Assay: Average EC50
pEC50: −log10 of the molar value.

Known pEC50 results, listed for orientation:
>>> observed_value("O=C(NCc1ncn2ccc(Cl)c(F)c12)c1cn(Cc2cn3ncccc3n2)cn1")
"7.00 to 8.00"
>>> observed_value("O=C(NCc1ncn2ccc(Cl)cc12)c1cnn(Cc2cn3cc(C4CC4)cc(C(O)C4COC4)c3n2)c1 (stereo not shown)")
"> 9.00"
>>> observed_value("N#Cc1cc(C2CC2)cn2cc(Cc3nnc(C(=O)NCc4ncn5ccc(Br)c(F)c45)o3)nc12")
"> 9.00"
>>> observed_value("O=C(NCc1ncn2ccc(Cl)c(F)c12)c1cn(Cc2cn3cc(C4CC4)cc(CC4(C(=O)O)CCCC4)c3n2)nn1 [Example I-221b]")
"> 9.00"
>>> observed_value("CCc1cccc2nc(Cn3cc(C(=O)NCc4ncn5ccc(Cl)cc45)cn3)cn12")
"7.00 to 8.00"

Input `O=C(NCc1ncn2ccc(Cl)c(F)c12)c1cn(Cc2nc3cc(C4CC4)ccn3n2)nn1` . Output pEC50: 7.00 to 8.00

Kindly note the recorded pEC50 for `Cc1c(C2CC2)ccc2nc(Cn3cc(C(=O)NCc4ncn5ccc(Cl)cc45)cn3)cn12` , which is > 9.00

====

Each entry below carries its recorded pEC50.
measurement target: human activated kallikrein enzyme (plasma kallikrein) (Homo sapiens (Human), UniProt P03952)
assay info: Inhibition of human activated plasma kallikrein, fluorogenic peptide substrate assay, 500 pM enzyme format
Type: biochemical
assay conditions: 500 pM activated kallikrein enzyme, 300 uM Pro-Phe-Arg-7-amido-4-methylcoumarin substrate, 30 min preincubation, 10 min at RT; read-out: Primary Dose Response Assay: Average EC50
pEC50: −log10 of the molar value.

Past entries and their recorded results:
>>> observed_value("O=C(NCc1ncn2ccc(Cl)c(F)c12)c1cn(Cc2[nH]c3ccc(C4CC4)cc3c2C(F)(F)F)nn1")
"7.00 to 8.00"
>>> observed_value("O=C(NCc1ncn2ccc(Cl)c(F)c12)c1cn(Cc2cn3cc(C4CC4)cc(N4CCCC4=O)c3n2)nn1")
"> 9.00"
>>> observed_value("O=C(NCc1ncn2ccc(Cl)cc12)c1cn(Cc2cn3cc(C4CC4)ccc3n2)nn1")
"> 9.00"

// `O=C(NCc1ncn2ccc(Cl)c(F)c12)c1cn(Cc2nc3ccc(C4CC4)cn3c2F)nn1` : pEC50 value = > 9.00

# pEC50 of `CCOC(=O)c1cc(C2CC2)cn2cc(Cn3cc(C(=O)NCc4ncn5ccc(Cl)cc45)cn3)nc12` = > 9.00

Looking up `O=C(NCc1ncn2ccc(Cl)cc12)c1cnn(Cc2cn3cc(C4CC4)cc(C(=O)O)c3n2)c1` , I see its pEC50 listed as 8.00 to 9.00
